// reported glycan array binding signal (z-score) for each item listed
Molecular target: Glc(b1-4)Glc
Experiment: glycan array binding signal (z-score within array); higher = stronger binding
Details: glycan notation: IUPAC condensed, linker removed
This excerpt belongs to a sample that is enriched for the strongest signals.
Keep the answer to the number alone.

Examples with answers:
>>> recorded_measurement("FBG4 (Homo sapiens), Q96EF6 (protein) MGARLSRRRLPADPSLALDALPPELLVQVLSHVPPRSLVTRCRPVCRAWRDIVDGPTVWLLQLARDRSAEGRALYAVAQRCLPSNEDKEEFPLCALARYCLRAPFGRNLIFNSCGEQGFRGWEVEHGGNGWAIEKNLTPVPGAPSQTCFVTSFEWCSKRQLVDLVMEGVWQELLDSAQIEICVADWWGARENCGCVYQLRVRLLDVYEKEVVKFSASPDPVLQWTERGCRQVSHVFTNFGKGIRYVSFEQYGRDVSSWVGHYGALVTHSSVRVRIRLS")
0.332
>>> recorded_measurement("DC-ASGPR S+GEE (Homo sapiens) (protein) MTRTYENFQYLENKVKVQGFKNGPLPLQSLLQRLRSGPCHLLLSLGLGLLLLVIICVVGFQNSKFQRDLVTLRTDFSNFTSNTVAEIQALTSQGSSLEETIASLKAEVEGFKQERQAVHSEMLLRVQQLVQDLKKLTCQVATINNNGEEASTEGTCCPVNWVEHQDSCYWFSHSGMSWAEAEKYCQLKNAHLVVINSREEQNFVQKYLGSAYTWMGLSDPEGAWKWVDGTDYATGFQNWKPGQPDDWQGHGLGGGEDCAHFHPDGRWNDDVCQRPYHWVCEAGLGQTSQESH")
-0.376
>>> recorded_measurement("Gal 9 (Canis lupus) (protein) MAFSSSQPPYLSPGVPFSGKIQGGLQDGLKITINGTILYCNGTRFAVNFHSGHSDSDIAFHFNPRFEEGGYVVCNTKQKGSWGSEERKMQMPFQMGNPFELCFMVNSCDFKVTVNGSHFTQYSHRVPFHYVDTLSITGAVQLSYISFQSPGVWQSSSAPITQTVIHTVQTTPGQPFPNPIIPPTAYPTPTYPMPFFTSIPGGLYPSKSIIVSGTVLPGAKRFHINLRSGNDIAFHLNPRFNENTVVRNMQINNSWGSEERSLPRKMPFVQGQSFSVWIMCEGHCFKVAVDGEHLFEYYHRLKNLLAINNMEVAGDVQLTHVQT")
-0.311
>>> recorded_measurement("HPAIIITrx (Helix pomatia), Q1KM18 (protein) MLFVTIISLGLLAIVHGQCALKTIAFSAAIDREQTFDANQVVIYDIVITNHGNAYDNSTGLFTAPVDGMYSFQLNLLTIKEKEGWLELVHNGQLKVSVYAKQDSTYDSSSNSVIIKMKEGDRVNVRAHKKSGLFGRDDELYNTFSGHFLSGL")
-0.122

Input line: Name the recorded glycan array binding signal (z-score) of the binder listed here: Gal 8 (Homo sapiens), O00214_1 (protein) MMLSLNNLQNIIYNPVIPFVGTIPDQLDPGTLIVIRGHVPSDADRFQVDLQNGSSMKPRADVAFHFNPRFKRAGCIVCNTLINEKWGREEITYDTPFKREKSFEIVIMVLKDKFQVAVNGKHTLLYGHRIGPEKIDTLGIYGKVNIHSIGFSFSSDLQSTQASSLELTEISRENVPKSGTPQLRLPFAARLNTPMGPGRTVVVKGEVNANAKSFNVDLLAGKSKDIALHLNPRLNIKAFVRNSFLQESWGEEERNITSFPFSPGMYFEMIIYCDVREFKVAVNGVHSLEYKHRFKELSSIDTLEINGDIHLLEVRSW
Output line: 0.078
